Origin of values: paper PMC5394233

- TARGET UNDER TEST: flPOT1 WT;TPP1(87) (Homo sapiens;Homo sapiens, UniProt Q9NUX5;Q96AP0 1-634;1-458, |)
- Sequence (Q9NUX5 whole entry, chain 1 of 2): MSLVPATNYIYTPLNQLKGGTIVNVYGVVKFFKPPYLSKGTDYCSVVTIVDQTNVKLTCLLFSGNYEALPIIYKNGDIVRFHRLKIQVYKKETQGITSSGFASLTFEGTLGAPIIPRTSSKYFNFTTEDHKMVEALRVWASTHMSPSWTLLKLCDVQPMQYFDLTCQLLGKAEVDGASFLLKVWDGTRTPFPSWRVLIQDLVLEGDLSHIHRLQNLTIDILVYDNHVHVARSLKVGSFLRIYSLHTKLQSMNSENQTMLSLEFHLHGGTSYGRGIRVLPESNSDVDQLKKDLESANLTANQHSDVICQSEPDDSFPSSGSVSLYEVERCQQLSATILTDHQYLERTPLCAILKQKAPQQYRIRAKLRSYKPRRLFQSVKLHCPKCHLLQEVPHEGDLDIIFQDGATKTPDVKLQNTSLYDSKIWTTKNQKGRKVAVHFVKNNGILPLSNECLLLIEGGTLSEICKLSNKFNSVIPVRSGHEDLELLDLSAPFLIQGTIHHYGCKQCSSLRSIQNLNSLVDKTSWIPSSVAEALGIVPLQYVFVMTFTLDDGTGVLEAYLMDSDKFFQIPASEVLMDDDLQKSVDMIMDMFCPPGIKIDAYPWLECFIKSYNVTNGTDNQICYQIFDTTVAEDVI
- Sequence (Q96AP0 whole entry, chain 2 of 2): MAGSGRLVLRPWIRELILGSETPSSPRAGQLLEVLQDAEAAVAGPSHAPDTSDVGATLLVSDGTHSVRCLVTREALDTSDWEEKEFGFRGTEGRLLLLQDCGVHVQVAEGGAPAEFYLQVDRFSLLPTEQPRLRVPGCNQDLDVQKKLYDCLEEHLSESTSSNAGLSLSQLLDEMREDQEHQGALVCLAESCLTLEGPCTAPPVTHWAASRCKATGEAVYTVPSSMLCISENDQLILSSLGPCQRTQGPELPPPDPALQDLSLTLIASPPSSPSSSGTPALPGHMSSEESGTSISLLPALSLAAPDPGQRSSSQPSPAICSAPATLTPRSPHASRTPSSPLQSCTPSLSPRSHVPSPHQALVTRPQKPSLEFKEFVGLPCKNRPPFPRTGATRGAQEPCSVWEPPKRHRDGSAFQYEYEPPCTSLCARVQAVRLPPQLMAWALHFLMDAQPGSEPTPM
- EXPERIMENT DESCRIPTION: fluorescence polarization; FP: 20 mM Hepes pH 7.5, 100 mM KCl, 2 mM MgCl2, 1 mM EDTA, 2 mM DTT, 1 mg/ml BSA, 5% glycerol, 75 nM polyT50 competitor, 2.5 nM probe, room temperature 30 min
- CONDITION PARAMETERS: protein: recombinant;recombinant, tags: N-terminal His6-pMocr, TEV-cleaved;N-terminal His6-MBP, copies: 1;1, label: 5' 6-FAM, single strand
pKd: −log10 of the molar value.
OBSERVATION TYPE: pKd

[[record]]
binder = "TTAGGGTTAGGGTTAGGG (ssDNA) [telomeric 18mer (TTAGGG)3]"
value_measured = "~8.24"

